Target: human recombinant histamine H1 receptor (Homo sapiens, UniProt P35367)
Construct: expressed in transfected cells; host or cells: CHO cells
Sequence (P35367 whole entry): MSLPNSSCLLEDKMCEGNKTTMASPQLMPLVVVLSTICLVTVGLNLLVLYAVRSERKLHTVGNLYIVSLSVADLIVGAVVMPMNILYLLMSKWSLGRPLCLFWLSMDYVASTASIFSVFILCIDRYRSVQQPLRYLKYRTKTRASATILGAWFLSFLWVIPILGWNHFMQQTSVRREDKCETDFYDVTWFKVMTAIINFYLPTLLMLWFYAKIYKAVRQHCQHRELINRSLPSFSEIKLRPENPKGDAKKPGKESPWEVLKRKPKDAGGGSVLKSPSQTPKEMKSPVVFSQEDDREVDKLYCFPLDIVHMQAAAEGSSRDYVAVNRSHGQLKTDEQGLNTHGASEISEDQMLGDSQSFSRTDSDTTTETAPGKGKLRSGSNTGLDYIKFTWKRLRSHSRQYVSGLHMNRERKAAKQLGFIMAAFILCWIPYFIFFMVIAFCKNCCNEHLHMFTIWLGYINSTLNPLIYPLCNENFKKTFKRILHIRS
Assay: Histamine H1 radioligand binding ([3H]Pyrilamine)
Conditions: percent inhibition of specific binding; screened at 1 μM; read-out: Inhibition of ligand binding, Hist. H1
Protocol: To evaluate in radioligand binding assays the activity of compounds of the invention, human recombinant histamine H1 receptor expressed in Chinese hamster ovary (CHO) cells (De Backer M D et al. Biochem. Biophys. Res Comm. 197(3):1601, 1993) in a modified Tris-HCl buffer (50 mM Tris-HCl, pH 7.4, 2 mM MgCl2, 100 mM NaCl, 250 mM Sucrose) were used. […] Receptor proteins were filtered and washed, the filters were then counted to determine [^3H]pyrilamine specifically bound. […]
inhibition at 1 µM vs 30%: at or above is 1, below is -1.

For orientation, consider the following solved cases.
Task: Can CN1CCc2c(c3cc(Cl)ccc3n2CCc2ccncc2)C1 [Compound 56] be said to have inhibition at 1 µM at or above 30%?
Output: 1

Task: // inclusive: inhibition at 1 µM at least 30%? input: Cc1ccc2c(c1)c1c(n2CC(=O)N2CCCCC2)CCN(C)C1 [Compound 395]
Output: -1

Task: // inclusive: inhibition at 1 µM at least 30%? input: CN1CCc2c(c3cc(C(F)(F)F)ccc3n2CCc2ccccc2)C1 [Compound 80]
Output: 1

Task: Could you verify whether the entry CCc1ccc(CCn2c3c(c4cc(C)ccc42)CN(C)CC3)cn1 [Compound 359] shows inhibition at 1 µM of no less than 30%?
Output: 1

Task: Could you tell me if the measured inhibition at 1 µM of OC1CCC(N2CCc3c(c4cc(Cl)ccc4n3CCc3ccc(C(F)(F)F)nc3)C2)C1 (stereo not drawn) [Compound 351] reaches 30% or more?
Output: 1

Others:
Task: Please indicate if the recorded inhibition at 1 µM for Cc1ccc2c(c1)c1c(n2CC(=O)N2Cc3ccccc3C2)CCN(C)C1 [Compound 397] meets or exceeds 30%.
Output: 1

Task: Given Cc1ccc(CCn2c3c(c4cc(C(=O)O)ccc42)CNCC3)cn1 [Compound 274] , state whether its inhibition at 1 µM is at least 30%.
Output: -1

Task: # bool: inhibition at 1 µM of Cc1ccc2c(c1)c1c(n2CC(C)c2ccc(F)cc2)CCN(C)C1 (stereo not drawn) [Compound 456] >= 30%
Output: 1

* * *

Biological target: human recombinant serotonin (5-Hydroxytryptamine) 5-HT2C receptor (Homo sapiens)
Construct: expressed in transfected cells; host or cells: CHO-K1 cells
Sequence (P28335 33-458): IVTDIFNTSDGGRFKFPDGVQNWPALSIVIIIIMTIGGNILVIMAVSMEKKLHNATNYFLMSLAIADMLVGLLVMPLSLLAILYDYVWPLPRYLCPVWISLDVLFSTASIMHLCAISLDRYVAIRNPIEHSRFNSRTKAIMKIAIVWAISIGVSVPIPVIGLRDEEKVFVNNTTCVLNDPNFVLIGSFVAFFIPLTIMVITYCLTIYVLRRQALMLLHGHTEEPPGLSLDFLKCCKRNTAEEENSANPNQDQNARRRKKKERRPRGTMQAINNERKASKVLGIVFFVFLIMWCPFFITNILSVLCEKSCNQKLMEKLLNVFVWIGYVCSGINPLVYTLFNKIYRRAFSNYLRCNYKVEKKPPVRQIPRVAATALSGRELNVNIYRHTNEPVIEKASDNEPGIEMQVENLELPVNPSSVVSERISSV
Experiment: Serotonin 5-HT2C radioligand binding ([3H]Mesulergine)
Set-up: concentration or dose not given beside the values
Conditions: percent inhibition of specific binding
Listed here are compounds together with their documented Inhibition of ligand binding, Ser. 5-HT2C.
Use % as the unit, but write only the number.

These solved cases illustrate the format of a correct answer.
Task: Entry Cc1ccc2c(c1)c1c(n2CCN2CCCCC2)CCN(C)C1 [Compound 224] needs its Inhibition of ligand binding, Ser. 5-HT2C filled in; supply it.
Output: 74

Task: State, in one line, measured Inhibition of ligand binding, Ser. 5-HT2C of CN1CCc2c(c3cc(C(F)(F)F)ccc3n2CCc2ccccc2)C1 [Compound 80]
Output: 90

Task: Give me measured Inhibition of ligand binding, Ser. 5-HT2C, please, for this compound: CN1CCc2c(c3cc(Cl)ccc3n2CCc2cncc(Cl)c2)C1 [Compound 444]
Output: 95

Task: For the compound CCc1ccc(CCn2c3c(c4cc(C)ccc42)CN(C)CC3)cn1 [Compound 359] , give its reported Inhibition of ligand binding, Ser. 5-HT2C.
Output: 91

Task: For Cc1ccc2c(c1)c1c(n2CCc2cncc(C(F)(F)F)c2)CCN(C)C1 [Compound 425] , write its Inhibition of ligand binding, Ser. 5-HT2C.
Output: 72

Task: Note down Inhibition of ligand binding, Ser. 5-HT2C recorded for CN1CCc2c(c3cc(Cl)ccc3n2CCc2ccc(Cl)cc2)C1 [Compound 45]
Output: 97

Task: // fetch Inhibition of ligand binding, Ser. 5-HT2C given entry Cc1ccc(C(O)Cn2c3c(c4cc(C)ccc42)CN(C)CC3)cc1 (racemic) [Compound 28]
Output: 100

Task: Complete the entry with Inhibition of ligand binding, Ser. 5-HT2C for CN1CCc2c(c3cc(Cl)ccc3n2CC(=O)N2CCNCC2)C1 [Compound 244]
Output: 22

Task: In one line, give reported Inhibition of ligand binding, Ser. 5-HT2C of the entry CN1CCc2c(c3ccc(Cl)cc3n2CCC2CCCCC2)C1 [Compound 188] .
Output: 66

Task: Supply recorded Inhibition of ligand binding, Ser. 5-HT2C for Cc1ccc2c(c1)c1c(n2CCc2ccc(C)[n+]([O-])c2)CCN(C)C1 [Compound 394] here.
Output: −8

More entries:
Task: Output Inhibition of ligand binding, Ser. 5-HT2C of COc1ccc(CCn2c3c(c4cc(Cl)ccc42)CN(C)CC3)cc1F [Compound 337]
Output: 94

Task: Give recorded Inhibition of ligand binding, Ser. 5-HT2C. Cc1ccc(CCn2c3c(c4cc(Cl)ccc42)CN(C)CC3)cc1 [Compound 43]
Output: 100

Task: Give me measured Inhibition of ligand binding, Ser. 5-HT2C, please, for this compound: Cc1cncc(CCn2c3c(c4cc(C)ccc42)CN(C)CC3)c1 [Compound 429]
Output: 84

Task: For the compound CCc1ccc2c(c1)c1c(n2CCc2cnc(C)nc2)CCN(C)C1 [Compound 362] , report Inhibition of ligand binding, Ser. 5-HT2C.
Output: 40

Task: Provide Inhibition of ligand binding, Ser. 5-HT2C value for the following compound: CN1CCc2c(c3cc(Cl)ccc3n2CCc2ccccc2)C1 [Compound 36]
Output: 94

Task: Report Inhibition of ligand binding, Ser. 5-HT2C for Cc1ccc2c(c1)c1c(n2CCC(=O)N2CCC(NC(=O)OC(C)(C)C)CC2)CCN(C)C1 [Compound 393]
Output: 26

Task: Hello, please tell me recorded Inhibition of ligand binding, Ser. 5-HT2C for this one: CN1CCc2c(c3cc(Cl)ccc3n2CC(=O)N2CCCC2)C1 [Compound 243]
Output: 33

Task: Return value of Inhibition of ligand binding, Ser. 5-HT2C for input Cc1ccc2c(c1)c1c(n2CC(=O)N2CCc3ccccc3C2)CCN(C)C1 [Compound 398] , no commentary.
Output: 69

Task: Specify measured Inhibition of ligand binding, Ser. 5-HT2C for Cc1ccc(CCn2c3c(c4cc(Cl)ccc42)CN(C)CC3)cn1 [Compound 225] .
Output: 91
